# target.or.system: ABL1 (Homo sapiens)
# Sequence (P00519 whole entry): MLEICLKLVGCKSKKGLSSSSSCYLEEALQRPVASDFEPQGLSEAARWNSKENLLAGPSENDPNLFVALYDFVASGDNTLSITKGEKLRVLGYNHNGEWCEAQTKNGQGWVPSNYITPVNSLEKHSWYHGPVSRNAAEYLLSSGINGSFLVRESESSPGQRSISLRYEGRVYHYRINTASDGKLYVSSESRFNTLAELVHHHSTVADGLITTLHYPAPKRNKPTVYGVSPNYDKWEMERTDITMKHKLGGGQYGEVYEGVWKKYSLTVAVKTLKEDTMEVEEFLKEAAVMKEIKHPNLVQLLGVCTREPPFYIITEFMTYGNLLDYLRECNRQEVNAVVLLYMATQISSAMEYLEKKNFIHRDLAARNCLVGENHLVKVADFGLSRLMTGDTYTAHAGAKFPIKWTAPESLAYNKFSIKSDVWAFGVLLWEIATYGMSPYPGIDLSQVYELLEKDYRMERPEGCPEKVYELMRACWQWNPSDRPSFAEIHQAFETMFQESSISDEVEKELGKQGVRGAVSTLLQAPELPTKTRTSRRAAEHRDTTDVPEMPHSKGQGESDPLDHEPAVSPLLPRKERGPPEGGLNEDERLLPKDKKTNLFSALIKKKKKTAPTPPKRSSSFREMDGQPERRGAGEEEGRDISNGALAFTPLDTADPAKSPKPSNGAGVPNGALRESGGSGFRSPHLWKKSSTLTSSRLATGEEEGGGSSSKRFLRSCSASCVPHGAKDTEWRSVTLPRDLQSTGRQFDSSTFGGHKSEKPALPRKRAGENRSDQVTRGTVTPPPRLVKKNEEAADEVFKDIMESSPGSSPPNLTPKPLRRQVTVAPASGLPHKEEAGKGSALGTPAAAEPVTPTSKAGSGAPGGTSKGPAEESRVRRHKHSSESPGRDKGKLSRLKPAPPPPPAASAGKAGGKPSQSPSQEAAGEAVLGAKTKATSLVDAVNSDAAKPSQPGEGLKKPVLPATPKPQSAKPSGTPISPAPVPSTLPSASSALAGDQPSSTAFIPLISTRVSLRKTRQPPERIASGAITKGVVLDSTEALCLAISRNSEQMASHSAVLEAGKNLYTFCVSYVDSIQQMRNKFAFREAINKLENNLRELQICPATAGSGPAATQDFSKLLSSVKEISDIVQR
measure.name: pIC50
pIC50 here is simply -log10 of the concentration when that concentration is written in mol/L.

Query: Query (compound): Cc1nc(Nc2ncc(C(=O)Nc3c(C)cc(F)cc3Cl)s2)cc(N2CCN(CCO)CC2)n1 ; field requested: pIC50
Response: 11.38

###

# test.description: in vitro
# reported.conditions: human, microsomes, pH 7.4
# half-life at 1 μM listing for each entry below
Give your result in min as a bare value.

Cc1nc(Nc2ncc(C(=O)Nc3c(C)cccc3Cl)s2)cc(N2CCN(CCO)CC2)n1 [Dasatinib, reference compound] = 10.9

Query: Please report the recorded half-life at 1 μM for Cc1nc(Nc2ncc(C(=O)Nc3c(C)cc(F)cc3Cl)s2)cc(N2CCN(CCO)CC2)n1 .
Response: 16.3
